Some binders, each annotated with its measured ADCC, PBMC killing (LDH), HCC1806, Maximum killing (%).
- Tested on: T1, human Trop-2 (on the surface of human cell lines) (human, UniProt P09758 27-323)
- T1 sequence: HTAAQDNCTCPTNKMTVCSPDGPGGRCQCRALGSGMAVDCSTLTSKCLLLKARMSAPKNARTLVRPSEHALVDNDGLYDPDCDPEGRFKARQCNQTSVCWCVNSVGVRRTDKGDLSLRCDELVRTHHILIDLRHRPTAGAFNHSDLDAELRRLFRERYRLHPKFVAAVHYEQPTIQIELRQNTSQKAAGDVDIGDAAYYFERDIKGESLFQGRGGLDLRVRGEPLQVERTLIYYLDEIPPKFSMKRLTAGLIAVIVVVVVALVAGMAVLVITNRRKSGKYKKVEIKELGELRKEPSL
- Protocol notes: cell-based or functional assay
Could you give me the number in %? Just the number is fine.

hz-Ab2-1.3 (antibody, human IgG1, kappa, V domains shown, Humanized antibody) VH: QVQLQESGPGLVKPSETLSLTCTVSGFSLTYYGIDWIRQPPGKGLEWIGVIWGSGNTKYNSALKSRVTISKDNSKSQFSLKLSSVTAADTAVYYCARFYEGFAYWGQGTLVTVSS VL: DIQMTQSPSSLSASVGDRVTITCKASQDINSYLSWFQQKPGKAPKTLIYRANRLVEGVPSRFSGSGSGQDYTLTISSLQPEDFATYYCLQYDEFPLTFGQGTKVEIKR = 37

// next item, ADCC, PBMC killing (LDH), HCC1806, Maximum killing (%) requested
Report ADCC, PBMC killing (LDH), HCC1806, Maximum killing (%) for hz-Ab2-1.1 (antibody, human IgG1, kappa, V domains shown, Humanized antibody) VH: EVQLVESGGGLIQPGGSLRLSCAVSGFSLTYYGIDWVRQPPGKGLEWVSVIWGSGNTKYNSALKSRLTISRDNSKSTLYLQMNSLRAEDTAVYYCARFYEGFAYWGQGTLVTVSS VL: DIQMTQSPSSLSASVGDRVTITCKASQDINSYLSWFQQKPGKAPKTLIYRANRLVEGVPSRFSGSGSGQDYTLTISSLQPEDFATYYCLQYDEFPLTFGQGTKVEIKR
32.9
